# ASSAYED TARGET: T1, COVID S1 RBM Fc fusion (Antigen 2) (SARS-CoV-2, UniProt P0DTC2 437-508)
# T1 construct: domain: RBM
# ASSAY SUMMARY: phage ELISA
// ELISA fold over background lookup, one value per entry
ENDPOINT: ELISA fold over background (fold over background)

[
  {
    "BINDER": "1-42 (antibody, V domains shown, also called variant 1-42) VH: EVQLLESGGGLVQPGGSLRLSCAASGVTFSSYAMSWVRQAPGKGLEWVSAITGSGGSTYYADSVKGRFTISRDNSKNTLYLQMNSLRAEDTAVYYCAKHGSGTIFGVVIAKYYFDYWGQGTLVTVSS VL: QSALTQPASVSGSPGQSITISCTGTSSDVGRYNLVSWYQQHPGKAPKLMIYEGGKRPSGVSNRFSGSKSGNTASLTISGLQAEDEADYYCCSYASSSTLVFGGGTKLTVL",
    "UNIT ABBREVIATION": "fold over background",
    "EXPERIMENTAL VALUE": 1
  },
  {
    "BINDER": "1-32 (antibody, V domains shown, also called variant 1-32) VH: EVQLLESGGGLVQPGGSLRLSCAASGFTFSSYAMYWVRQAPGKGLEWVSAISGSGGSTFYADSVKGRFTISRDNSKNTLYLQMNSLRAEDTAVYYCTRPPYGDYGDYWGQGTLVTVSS VL: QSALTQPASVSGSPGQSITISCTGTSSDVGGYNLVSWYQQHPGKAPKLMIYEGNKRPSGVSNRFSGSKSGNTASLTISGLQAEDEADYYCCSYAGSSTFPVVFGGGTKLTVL",
    "UNIT ABBREVIATION": "fold over background",
    "EXPERIMENTAL VALUE": 1.1
  },
  {
    "BINDER": "1-10 (antibody, V domains shown, also called variant 1-10) VH: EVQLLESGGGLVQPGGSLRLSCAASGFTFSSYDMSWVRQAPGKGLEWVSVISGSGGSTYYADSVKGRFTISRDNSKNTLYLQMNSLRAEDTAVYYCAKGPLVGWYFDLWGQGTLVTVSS VL: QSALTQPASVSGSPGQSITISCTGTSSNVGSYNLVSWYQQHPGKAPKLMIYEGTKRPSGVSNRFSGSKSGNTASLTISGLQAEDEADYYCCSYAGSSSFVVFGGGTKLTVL",
    "UNIT ABBREVIATION": "fold over background",
    "EXPERIMENTAL VALUE": 1.1
  },
  {
    "BINDER": "1-23 (antibody, V domains shown, also called variant 1-23) VH: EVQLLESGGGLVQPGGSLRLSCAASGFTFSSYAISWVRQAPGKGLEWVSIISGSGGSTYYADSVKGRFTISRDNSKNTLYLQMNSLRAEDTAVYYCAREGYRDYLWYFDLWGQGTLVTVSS VL: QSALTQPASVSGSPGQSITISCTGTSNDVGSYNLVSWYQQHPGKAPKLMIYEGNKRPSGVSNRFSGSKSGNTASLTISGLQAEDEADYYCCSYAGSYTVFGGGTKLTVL",
    "UNIT ABBREVIATION": "fold over background",
    "EXPERIMENTAL VALUE": 1.6
  },
  {
    "BINDER": "1-3 (antibody, V domains shown, also called variant 1-3) VH: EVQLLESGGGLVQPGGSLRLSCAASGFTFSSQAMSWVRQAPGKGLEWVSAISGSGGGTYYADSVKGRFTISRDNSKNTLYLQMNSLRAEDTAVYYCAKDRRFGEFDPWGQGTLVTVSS VL: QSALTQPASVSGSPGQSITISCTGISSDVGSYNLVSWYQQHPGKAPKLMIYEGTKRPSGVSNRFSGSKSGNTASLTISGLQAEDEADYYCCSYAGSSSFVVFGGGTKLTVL",
    "UNIT ABBREVIATION": "fold over background",
    "EXPERIMENTAL VALUE": 1.5
  }
]
